# TEST_TARGET: F508delCFTR (Homo sapiens, UniProt P13569, DEL508-508)
# Construct: expressed in transfected cells; host or cells: CFBE41o- human lung-derived epithelial cells (CFBE4lo-F508delCFTR-HRP), doxycycline-inducible
# Sequence (P13569 with tags, fused parts or gaps DEL508-508): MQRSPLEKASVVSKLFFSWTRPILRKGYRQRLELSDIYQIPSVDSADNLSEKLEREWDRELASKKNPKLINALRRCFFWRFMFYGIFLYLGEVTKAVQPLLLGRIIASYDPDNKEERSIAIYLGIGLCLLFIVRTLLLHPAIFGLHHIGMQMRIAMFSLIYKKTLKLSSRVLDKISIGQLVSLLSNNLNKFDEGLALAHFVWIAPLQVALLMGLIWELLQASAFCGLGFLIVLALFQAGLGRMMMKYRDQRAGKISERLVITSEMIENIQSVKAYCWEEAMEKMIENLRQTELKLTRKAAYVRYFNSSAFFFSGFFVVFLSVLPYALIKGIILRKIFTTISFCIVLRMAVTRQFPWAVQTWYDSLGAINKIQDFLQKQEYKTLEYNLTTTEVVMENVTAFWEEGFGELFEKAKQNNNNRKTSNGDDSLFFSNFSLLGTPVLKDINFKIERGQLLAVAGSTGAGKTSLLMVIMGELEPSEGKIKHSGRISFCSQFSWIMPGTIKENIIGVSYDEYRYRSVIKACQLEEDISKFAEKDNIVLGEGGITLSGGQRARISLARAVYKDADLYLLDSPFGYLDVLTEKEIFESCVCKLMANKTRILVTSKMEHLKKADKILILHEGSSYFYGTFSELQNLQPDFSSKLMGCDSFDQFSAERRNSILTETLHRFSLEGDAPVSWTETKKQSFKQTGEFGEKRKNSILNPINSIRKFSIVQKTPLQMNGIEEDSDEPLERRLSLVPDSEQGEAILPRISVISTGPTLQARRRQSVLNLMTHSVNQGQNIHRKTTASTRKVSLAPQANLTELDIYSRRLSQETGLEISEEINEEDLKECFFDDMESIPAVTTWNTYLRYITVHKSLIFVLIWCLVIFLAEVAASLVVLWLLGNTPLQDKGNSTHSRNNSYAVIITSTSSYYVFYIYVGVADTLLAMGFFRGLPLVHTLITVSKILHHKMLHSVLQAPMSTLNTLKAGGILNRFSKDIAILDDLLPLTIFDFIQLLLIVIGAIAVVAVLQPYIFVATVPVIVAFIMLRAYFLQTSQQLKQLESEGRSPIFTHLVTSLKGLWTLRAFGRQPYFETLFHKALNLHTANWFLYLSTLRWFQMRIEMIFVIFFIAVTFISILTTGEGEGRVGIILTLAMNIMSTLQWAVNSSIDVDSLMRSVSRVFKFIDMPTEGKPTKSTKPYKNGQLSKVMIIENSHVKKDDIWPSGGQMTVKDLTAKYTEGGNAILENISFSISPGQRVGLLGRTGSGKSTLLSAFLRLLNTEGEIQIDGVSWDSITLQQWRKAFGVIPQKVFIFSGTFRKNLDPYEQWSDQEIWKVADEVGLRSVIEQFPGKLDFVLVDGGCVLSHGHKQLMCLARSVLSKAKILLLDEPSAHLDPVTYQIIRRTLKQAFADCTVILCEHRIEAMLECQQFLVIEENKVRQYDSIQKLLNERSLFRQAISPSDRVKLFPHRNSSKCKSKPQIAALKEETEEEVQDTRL
# TEST_DESCRIPTION: Cell Surface Expression-Horse Radish Peroxidase (CSE-HRP) Assay
# Assay type: cell-based
# CONDITION_NOTES: CSE-HRP; test compound without co-corrector; read-out: EC50 (without co-corrector)
# Method: Cell Surface Expression-Horse Radish Peroxidase (CSE-HRP) Assay The development was achieved by expressing the F508delCFTR mutation along with a horseradish peroxidase (HRP) in the fourth exofacial loop, and then measuring the HRP activity using luminescence readout from these cells, CFBE4lo-F508delCFTR-HRP, that were incubated overnight with the test corrector compounds, either without or with the co-corrector. […] The raw counts from the experiment were analyzed using Accelrys® Assay Explorer v3.3. […]
pEC50: −log10 of the molar value.
EXPERIMENTAL_READOUT: pEC50

COc1ccc(C(C)(C)C)cc1CN[C@H]1[C@H](C(C)(C)C)[C@@H](C(=O)O)N(C(=O)Cc2ncc(Cl)cc2F)[C@H]1c1ccccc1 = 5.00 to 6.00

**Query** Fill in the blank: the reported pEC50 of COc1ccc(C(F)(F)F)cc1CN[C@@H]1[C@@H](C(C)(C)C)[C@H](C(=O)O)N(C(=O)Cc2ccccc2)[C@@H]1c1ccccc1 (racemic) is ____.
**Result** 5.00 to 6.00

**Query** Fill in the blank: the reported pEC50 of COc1cc(C(F)(F)F)ccc1CN[C@H]1[C@H](C(C)(C)C)[C@@H](C(=O)O)N(C(=O)C2CCCCC2)[C@H]1c1ccccc1OC (stereo in doubt) is ____.
**Result** > 6.00

**Query** Fill in the blank: the reported pEC50 of CC(C)(C)[C@H]1[C@H](Nc2cc(C(F)(F)F)cc(C(F)(F)F)c2)[C@H](c2ccccc2)N(C(=O)C2CCCCC2)[C@@H]1C(=O)O is ____.
**Result** > 6.00

**Query** Fill in the blank: the reported pEC50 of COc1ccc(C(F)(F)F)cc1CN[C@@H]1[C@@H](C(C)(C)C)[C@H](C(=O)O)N(C(=O)C2CCCCO2)[C@@H]1c1ccccc1N(C)C (mixture of isomers) is ____.
**Result** 5.00 to 6.00

**Query** Fill in the blank: the reported pEC50 of COc1cc(C(F)(F)F)ccc1CN[C@H]1[C@H](C(C)(C)C)[C@@H](C(=O)O)N(C(=O)[C@@H]2CCCCO2)[C@H]1c1cccnc1OC is ____.
**Result** 5.00 to 6.00

---

# TEST_TARGET: F508delCFTR (Homo sapiens, UniProt P13569, DEL508-508)
# Construct: expressed in transfected cells; host or cells: CFBE41o- human lung-derived epithelial cells (CFBE4lo-F508delCFTR-HRP), doxycycline-inducible
# TEST_DESCRIPTION: Cell Surface Expression-Horse Radish Peroxidase (CSE-HRP) Assay
# Assay type: cell-based
# CONDITION_NOTES: test compound without co-corrector; read-out: EC50 (without co-corrector)
EXPERIMENTAL_READOUT: EC50

Answered examples (2):
CCc1ccccc1[C@H]1[C@@H](NCc2cc(C3CCC3)cnc2OC)[C@H](C(C)(C)C)[C@@H](C(=O)O)N1C(=O)[C@@H]1CCCO1 = 1 to 10 µM
CC(C)(C)[C@@H]1[C@@H](NCc2ccccc2OC(F)F)[C@@H](c2ccccn2)N(C(=O)C2CCCCC2)[C@H]1C(=O)O (racemic) = 1 to 10 µM

Next item in the queue.
**Query** Fill in the blank: the reported EC50 of COc1ncc(C(F)(F)F)cc1CN[C@H]1[C@H](C(C)(C)C)[C@@H](C(=O)O)N(C(=O)C2CCCCC2)[C@H]1c1ccccc1C(C)C is ____.
**Result** 1 to 10 µM
